Ref: PubChem BioAssay (NCI)

test system: U251 CNS; assay: NCI-60 one-dose screen, 48 h (100 = growth as untreated, 0 = no growth, -100 = all killed); settings: 10 µM unless noted
Compounds without any hit were thinned out: in the full panel of roughly 83,000, 20% have a hit.
For each entry below, report its growth value.
All answers are understood in %, so give the number only.

Prompt: Looking for the measured growth of COc1ccc(/C=N/NC(=O)c2cnn(CC(O)Cc3ccccc3)c2N)cc1OC1CCCC1 (stereo unspecified) , can you help?
Completion: 85.6

Prompt: Looking for the measured growth of O=C1NC(=O)C2(CCCC2C(=O)O)N1 (stereo unspecified) , can you help?
Completion: 96.7

Prompt: Looking for the measured growth of Cc1oc2c(c1C(=O)N1CC[C@@H](N)C1)C(=O)c1c(c(O)c3ccccc3c1O)C2=O , can you help?
Completion: 23.8

Prompt: Looking for the measured growth of COc1cc(C2C3=C(COC3=O)N(CCO)c3cc4c(cc32)OCO4)cc(OC)c1O (stereo unspecified) , can you help?
Completion: 21.4

Prompt: Looking for the measured growth of Cn1cc(C(=O)NCCC(=N)N)cc1NC(=O)CN=C(N)N , can you help?
Completion: 98

Prompt: Looking for the measured growth of O=c1nc(NO)[nH]c(=O)n1Cc1ccc(F)cc1 , can you help?
Completion: 98.6

====

test system: HCC-2998 colon; experiment: NCI-60 one-dose screen, 48 h; details: 10 µM unless noted
About 83,000 compounds went through this panel and 20% of them were active in at least one assay; those are over-represented in the sample as a whole. The source made the active and inactive calls. How the source made its calls: active means growth percent below 10; inactive means the rest.
Your answer must be one of the following: active, inactive

Prompt: What outcome does the record of this test show for COc1cc(C2C3=C(COC3=O)N(CCO)c3cc4c(cc32)OCO4)cc(OC)c1O (stereo not given) ?
Completion: inactive

Prompt: What outcome does the record of this test show for Cc1nn2c(-c3nc4ccc(Cl)cc4[nH]3)c(-c3ccc(F)cc3)nc2s1 ?
Completion: inactive

Prompt: What outcome does the record of this test show for CCCCC(O)Cn1ncc(C(=O)OCC)c1NC(=O)NCc1ccccc1C(F)(F)F (stereo not given) ?
Completion: inactive

Prompt: What outcome does the record of this test show for Cc1c(NCC(=O)Nc2nc3ccccc3[nH]2)c(=O)n(-c2ccccc2)n1C ?
Completion: inactive

Prompt: What outcome does the record of this test show for Brc1ccc(SCN(CSc2ccc(Br)cc2)Cc2ccccc2)cc1 ?
Completion: inactive

Prompt: What outcome does the record of this test show for CCCCCCCCCCCC(=O)[O][Sn]([CH2]CCC)([CH2]CCC)[CH2]CCC ?
Completion: active

Prompt: What outcome does the record of this test show for CCCCCCCCCCCCCCNc1nc(CO)ncc1-c1ccc(C(F)(F)F)cc1 ?
Completion: inactive

Prompt: What outcome does the record of this test show for Cc1ccc(C)c2c1sc1nc3nc4sc5ccccc5n4c(=N)c3c(=O)n12 ?
Completion: inactive

Prompt: What outcome does the record of this test show for O=C(CC(O)c1ccccc1)Nc1ccccn1 (stereo not given) ?
Completion: inactive

Prompt: What outcome does the record of this test show for COc1cc2nc(SCc3cc(OC)c(OC)c(OC)c3)n(-c3ccccc3OC)c(=O)c2cc1OC ?
Completion: inactive

====

test system: MDA-MB-435 melanoma; assay: NCI-60 one-dose screen, 48 h; conditions: 10 µM unless noted
Compounds without any hit were thinned out: in the full panel of roughly 83,000, 20% have a hit. Calls of active or inactive are those of the source. The calls were made as follows: active = growth percent below 10; inactive = the rest.
Your answer must be one of the following: active, inactive

Prompt: What outcome does the record of this test show for Cc1c(C)n(CC(O)CNC2CCCCC2C)c2ccccc12 (stereo unspecified) ?
Completion: active

Prompt: What outcome does the record of this test show for COc1ccc(-c2csc3c2-n2cccc2C3=O)cc1O ?
Completion: active

Prompt: What outcome does the record of this test show for CCCN1CCN(c2ccc3nc(-c4ccc5nc(-c6ccc(C(F)(F)F)cc6)[nH]c5c4)[nH]c3c2)CC1 ?
Completion: active

Prompt: What outcome does the record of this test show for COc1cc(NC(=O)COc2ccccc2)c(C(N)=O)cc1OC ?
Completion: active

Prompt: What outcome does the record of this test show for O=c1oc2ccccc2cc1-c1csc(N=Nc2c(O)[nH]c3ccc(Br)cc23)n1 ?
Completion: inactive

Prompt: What outcome does the record of this test show for O=C1c2c(c3c4cc(Br)ccc4[nH]c3c3ccc4ccccc4c23)C(=O)N1O ?
Completion: inactive
